B1: PhoQ; a variant is named by its letters at X, in order, P23837 (parent)
chain: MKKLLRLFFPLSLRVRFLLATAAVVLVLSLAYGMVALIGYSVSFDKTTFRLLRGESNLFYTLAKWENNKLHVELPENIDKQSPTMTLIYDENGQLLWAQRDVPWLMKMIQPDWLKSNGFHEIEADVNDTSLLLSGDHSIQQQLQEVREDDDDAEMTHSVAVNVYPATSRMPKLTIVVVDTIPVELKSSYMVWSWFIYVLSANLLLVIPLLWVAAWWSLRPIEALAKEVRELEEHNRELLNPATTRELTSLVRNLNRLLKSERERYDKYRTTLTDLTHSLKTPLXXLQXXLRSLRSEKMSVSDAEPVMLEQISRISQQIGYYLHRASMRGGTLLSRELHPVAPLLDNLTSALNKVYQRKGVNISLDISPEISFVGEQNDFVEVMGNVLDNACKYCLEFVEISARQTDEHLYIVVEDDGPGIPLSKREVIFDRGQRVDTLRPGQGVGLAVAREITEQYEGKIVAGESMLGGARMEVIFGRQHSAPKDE

Variants of: B1
Assay: enrichment ratio after two sorts for PhoP signalling (ratio (wild type AVST 3.29)); higher = more functional
Details: with PhoP (E. coli)
Over roughly 140,000 sequences, “enrichment ratio after two sorts for PhoP signalling” has its median near 0; the highest 2% begin near 11. Only a selection was taken, and the highest values are over-represented in it overall.
measured.metric: enrichment ratio

| var | measured.metric | value.reported |
| --- | --- | --- |
| SRMA | enrichment ratio | ≤ 0.25 |
| DKIR | enrichment ratio | ≤ 0.25 |
| RWFD | enrichment ratio | ≤ 0.25 |
| GEAA | enrichment ratio | 11.4 |
| TEMI | enrichment ratio | 51.6 |
| DMNC | enrichment ratio | ≤ 0.25 |
| SQSD | enrichment ratio | ≤ 0.25 |
| TEMF | enrichment ratio | 5.53 |
| SHAM | enrichment ratio | 8.88 |
| MEAG | enrichment ratio | ≤ 0.25 |
| LRMY | enrichment ratio | ≤ 0.25 |
| GEAS | enrichment ratio | 9.56 |
| LYVG | enrichment ratio | ≤ 0.25 |
| GGLK | enrichment ratio | ≤ 0.25 |
| GEYT | enrichment ratio | 0.289 |
| AQEG | enrichment ratio | ≤ 0.25 |
| QPGC | enrichment ratio | ≤ 0.25 |
| ATTI | enrichment ratio | 13.7 |
| MFGF | enrichment ratio | ≤ 0.25 |
| TMPC | enrichment ratio | ≤ 0.25 |
| NHGC | enrichment ratio | ≤ 0.25 |
| QGWM | enrichment ratio | 9.7 |
| NEAG | enrichment ratio | 2.93 |
| TMTC | enrichment ratio | 13.5 |
| IAKS | enrichment ratio | ≤ 0.25 |
| SDLF | enrichment ratio | ≤ 0.25 |
| TEMY | enrichment ratio | 12.3 |
| GEAY | enrichment ratio | 23.4 |
| ATTA | enrichment ratio | ≤ 0.25 |
| QCSI | enrichment ratio | ≤ 0.25 |
| VRAM | enrichment ratio | ≤ 0.25 |
| TRMY | enrichment ratio | 0.856 |
| DRLY | enrichment ratio | ≤ 0.25 |
| DMWR | enrichment ratio | ≤ 0.25 |
| TEAG | enrichment ratio | 19.7 |
| GNFW | enrichment ratio | ≤ 0.25 |
| THAM | enrichment ratio | 18.6 |
| QIFY | enrichment ratio | ≤ 0.25 |
| RKNR | enrichment ratio | ≤ 0.25 |
| QYHW | enrichment ratio | ≤ 0.25 |
| VNTQ | enrichment ratio | ≤ 0.25 |
| FFAM | enrichment ratio | ≤ 0.25 |
| GVMF | enrichment ratio | 2.88 |
| MSWY | enrichment ratio | 5.91 |
| RQMN | enrichment ratio | ≤ 0.25 |
| HKKD | enrichment ratio | ≤ 0.25 |
